Entry source: ChEMBL document CHEMBL1201862

# Test system: CCRF-CEM
# measurement description: NCI tumour cell line growth inhibition, 48 h
Calls of active or inactive are those of the source. Cut-off read from the data, not from the text of the source: active = GI50 up to about 1.1 µM and inactive = higher.
Outcomes: active, inactive

compound: O=c1[nH]c(=O)n(C2CC(O)C(CO)O2)cc1/N=N/NCCCc1ccccc1 (stereo unspecified)
cat: inactive
--
compound: CCCCP1(=O)C=CC(Cl)=C(C)C1 (stereo unspecified)
cat: inactive
--
compound: Clc1nc(Cl)nc(Nc2cccc3ccccc23)n1
cat: inactive
--
compound: COc1cc(C(=O)N(C(=O)N2CCCCC2)c2ccccc2)cc(OC)c1OC
cat: inactive
--
compound: Cc1cc(C)nc(NS(=O)(=O)c2ccc(NNc3c4ccccc4nc4c(C(=O)Nc5ccc(S(=O)(=O)Nc6ncccn6)cc5)cccc34)cc2)n1
cat: inactive
--
compound: CN1c2ccccc2C(=O)NC12CCN(CC1COc3ccccc3O1)CC2 (stereo unspecified)
cat: inactive
--
compound: O=C(/C=C1\Sc2ccccc2N=C1CC(=O)c1ccccc1)c1ccccc1
cat: inactive
--
compound: CC(C)(NC(=O)OCc1ccccc1)C(=O)OC(=O)C(C)(C)NC(=O)OCc1ccccc1
cat: inactive
--
compound: CC(C)c1ccc(/C(C(=O)O)=C(\O)C(=O)O)cc1
cat: inactive
--
compound: CC1=Cc2cccc(C)c2C(=O)C1=O [O-HIBISCANONE]
cat: active
--
compound: COC(=O)c1c(O)ccc2c1c1c(n2Cc2cccc(C)c2)C(=O)c2ccccc2C1=O
cat: inactive
--
compound: Cc1cc(N(CCC#N)S(=O)(=O)c2ccccc2)ccc1/C=C1N=C(/C=C/c2ccccc2)OC\1=O
cat: inactive
--
compound: Nc1ncc(CN2CCCC2)c(-c2ccccc2O)n1
cat: inactive
--
compound: CN(N=O)C(=O)Nc1c[nH]c(=O)[nH]c1=O
cat: inactive
--
compound: CN1CCCCC1CCN1c2ccccc2Sc2ccc([S+](C)[O-])cc21 (stereo unspecified) [MESORIDAZINE]
cat: inactive
--
compound: OC1(c2ccccc2)C2CCN(CC2)C1CN1CCOCC1 (stereo unspecified)
cat: inactive
--
compound: c1ccc(/N=C2\S/C(=N\C3CCCCC3)N(C3CCCCC3)\C2=N/c2ccccc2)cc1
cat: inactive
--
compound: CCCCC(C(=O)CCC(=O)Nc1ccc(Cl)c(Cl)c1)C(=O)C(C)C (stereo unspecified)
cat: inactive
--
compound: C=CCNC1=C(C(=O)OCC)C(=O)CO1
cat: inactive
--
compound: Cc1ccc(Nc2ccc(Nc3ccc(C)cc3S(=O)(=O)O)c3c2C(=O)c2ccccc2C3=O)c(S(=O)(=O)O)c1
cat: inactive
--
compound: Cc1cc(=O)nc(Sc2ccc([N+](=O)[O-])cc2[N+](=O)[O-])[nH]1
cat: active
